- Test system: UGT2B4/UGT2B7 (NAF glucuronidation)
- Assay: Inhibition of the glucuronidation of NAF enantiomers by specific UGT inhibitors in pooled HLM
- Test Settings: human, pooled human liver microsomes, pH 7.5, probe R(+)-NAF 50 μM, S(-)-NAF 20 μM
Assay Endpoint: inhibition at 45 min, 0.25 mM

Given the entry OC(Cn1cncn1)(Cn1cncn1)c1ccc(F)cc1F , report its measured inhibition at 45 min, 0.25 mM. ~35%

* * *

- Target Desc: UGT2B7 (Homo sapiens)
- Sequence (P16662 24-529): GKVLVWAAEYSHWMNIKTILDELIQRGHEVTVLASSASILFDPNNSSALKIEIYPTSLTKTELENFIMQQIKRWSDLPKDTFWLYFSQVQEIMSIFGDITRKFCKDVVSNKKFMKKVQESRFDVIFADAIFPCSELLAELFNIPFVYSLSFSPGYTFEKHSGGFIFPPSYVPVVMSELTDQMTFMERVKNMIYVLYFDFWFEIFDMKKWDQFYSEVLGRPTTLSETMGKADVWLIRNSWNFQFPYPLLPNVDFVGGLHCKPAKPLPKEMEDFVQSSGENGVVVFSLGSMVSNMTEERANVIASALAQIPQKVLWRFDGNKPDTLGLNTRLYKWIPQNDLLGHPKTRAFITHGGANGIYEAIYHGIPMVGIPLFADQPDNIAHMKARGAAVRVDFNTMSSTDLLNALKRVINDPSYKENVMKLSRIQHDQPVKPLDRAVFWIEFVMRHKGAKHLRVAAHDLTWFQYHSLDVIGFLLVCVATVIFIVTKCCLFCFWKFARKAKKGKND
- Assay: Inhibition of zidovudine glucuronidation in pooled HLM
- Type: in vitro ADME
- Design: tissue BD Gentest; host or cells: pooled human liver microsomes
- Test Settings: substrate zidovudine, enzyme HLM
Give measured Ki for each item. Keep answers brief.
Numbers only, in µM.

{"columns": ["Molecule", "Value Reported"],
 "data": [
  ["COc1ccccc1N1CCN(C[C@H](O)COc2cccc3ccccc23)CC1 [S(-)-NAF]", 35.7]
]}

Given the entry COc1ccccc1N1CCN(C[C@@H](O)COc2cccc3ccccc23)CC1 [R(+)-NAF] , report its measured Ki. 64.9
